Data provenance is patent US20260200901A1.

System under test: hERG cardiac potassium channel (Homo sapiens)
Construct: host or cells: CHO crelox hERG cell line (Chinese hamster)
Sequence (Q12809 whole entry): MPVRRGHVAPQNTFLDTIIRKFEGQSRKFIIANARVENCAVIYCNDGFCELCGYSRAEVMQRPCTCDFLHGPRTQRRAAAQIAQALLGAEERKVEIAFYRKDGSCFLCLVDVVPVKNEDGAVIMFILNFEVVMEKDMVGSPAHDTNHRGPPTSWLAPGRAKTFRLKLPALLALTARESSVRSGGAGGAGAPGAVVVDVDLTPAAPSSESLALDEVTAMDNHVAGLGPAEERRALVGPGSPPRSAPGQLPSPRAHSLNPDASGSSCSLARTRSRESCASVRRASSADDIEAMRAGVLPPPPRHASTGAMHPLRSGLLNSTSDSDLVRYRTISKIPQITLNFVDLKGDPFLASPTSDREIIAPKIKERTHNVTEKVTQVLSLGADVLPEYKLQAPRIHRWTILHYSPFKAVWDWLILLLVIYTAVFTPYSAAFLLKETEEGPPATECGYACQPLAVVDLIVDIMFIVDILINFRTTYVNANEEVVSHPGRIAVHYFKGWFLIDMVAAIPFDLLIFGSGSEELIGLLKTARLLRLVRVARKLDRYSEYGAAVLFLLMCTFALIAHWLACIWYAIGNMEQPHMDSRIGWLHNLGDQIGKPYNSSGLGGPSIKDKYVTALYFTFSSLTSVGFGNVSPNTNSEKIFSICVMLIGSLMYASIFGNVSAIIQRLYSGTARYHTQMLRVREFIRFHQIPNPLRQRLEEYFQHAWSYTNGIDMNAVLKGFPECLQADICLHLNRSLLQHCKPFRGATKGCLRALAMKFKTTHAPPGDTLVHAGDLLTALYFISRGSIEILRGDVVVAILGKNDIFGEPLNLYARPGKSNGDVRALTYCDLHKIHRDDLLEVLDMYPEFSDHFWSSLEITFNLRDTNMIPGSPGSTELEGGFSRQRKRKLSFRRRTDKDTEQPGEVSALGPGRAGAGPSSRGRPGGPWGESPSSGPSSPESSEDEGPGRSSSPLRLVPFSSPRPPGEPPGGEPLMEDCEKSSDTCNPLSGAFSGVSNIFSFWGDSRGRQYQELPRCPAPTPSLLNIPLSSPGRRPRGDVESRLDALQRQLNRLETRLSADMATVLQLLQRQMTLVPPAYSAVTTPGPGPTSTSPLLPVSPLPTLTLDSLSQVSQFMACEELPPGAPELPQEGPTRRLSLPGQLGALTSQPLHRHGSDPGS
Protocol: hERG screening assay (automated patch clamp, CHO crelox hERG cells)
Format: cell-based
Measurement setup: whole-cell patch clamp, 35-37° C.

{"columns": ["Structure as smiles", "Units", "IC20"],
 "data": [
  ["CNC(=O)CCCN1CCC[C@@H](Nc2nnc(-c3ccc4c(c3O)CCO4)c(C)n2)C1", "nM", 2900]
]}

* * *

System under test: NLRP3 (Homo sapiens)
Sequence (Q96P20 whole entry): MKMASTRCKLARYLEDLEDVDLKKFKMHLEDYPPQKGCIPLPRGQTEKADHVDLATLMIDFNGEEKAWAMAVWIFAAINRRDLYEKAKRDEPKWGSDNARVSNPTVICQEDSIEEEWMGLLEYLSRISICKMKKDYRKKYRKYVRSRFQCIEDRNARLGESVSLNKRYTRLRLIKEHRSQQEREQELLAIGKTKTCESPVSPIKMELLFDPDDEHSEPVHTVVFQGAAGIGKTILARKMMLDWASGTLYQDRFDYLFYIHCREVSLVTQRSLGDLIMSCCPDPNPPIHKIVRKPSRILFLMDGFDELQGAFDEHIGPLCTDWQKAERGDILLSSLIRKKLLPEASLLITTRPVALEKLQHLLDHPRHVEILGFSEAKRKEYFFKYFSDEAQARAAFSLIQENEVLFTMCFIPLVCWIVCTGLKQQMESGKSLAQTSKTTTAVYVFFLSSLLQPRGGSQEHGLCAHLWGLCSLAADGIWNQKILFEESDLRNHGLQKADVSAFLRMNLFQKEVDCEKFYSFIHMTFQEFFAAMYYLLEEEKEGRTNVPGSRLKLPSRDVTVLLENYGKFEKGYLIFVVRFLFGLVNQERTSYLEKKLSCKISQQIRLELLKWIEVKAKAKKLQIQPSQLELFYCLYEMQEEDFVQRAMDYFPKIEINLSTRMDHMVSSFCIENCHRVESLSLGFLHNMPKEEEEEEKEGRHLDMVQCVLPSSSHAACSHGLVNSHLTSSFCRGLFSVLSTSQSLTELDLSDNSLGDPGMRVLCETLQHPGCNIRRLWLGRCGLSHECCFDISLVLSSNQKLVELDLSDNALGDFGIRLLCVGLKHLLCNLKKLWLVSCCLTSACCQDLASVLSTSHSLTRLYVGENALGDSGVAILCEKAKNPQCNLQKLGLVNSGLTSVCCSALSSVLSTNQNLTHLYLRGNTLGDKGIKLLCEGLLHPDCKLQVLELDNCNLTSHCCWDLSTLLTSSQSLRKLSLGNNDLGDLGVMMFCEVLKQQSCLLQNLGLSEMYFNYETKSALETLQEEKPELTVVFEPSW
Protocol: Human whole blood IL-1β release assay
Format: cell-based
Design: Human whole blood in Li-heparin tubes was obtained from healthy donors; from tissue; host or cells: human whole blood from healthy donors
Measurement setup: LPS 1 μg/ml, nigericin 10 μM, IL-1β AlphaLisa
pIC50: −log10 of the molar value. Counter-ions that a name gives are not always drawn.
Entries annotated with measured pIC50

{"columns": ["Compound", "System under test", "pIC50"],
 "data": [
  ["Cc1nc(N[C@@H]2CCCN(CCCC#N)C2)nnc1-c1ccc2c(c1O)CCO2", "NLRP3 (Homo sapiens)", 7.59],
  ["CNC(=O)CCCN1CCC[C@@H](Nc2nnc(-c3ccc4c(c3O)CCO4)c(C)n2)C1", "NLRP3 (Homo sapiens)", 7.40],
  ["Cc1nc(N[C@@H]2CCCN(CCCS(C)(=O)=O)C2)nnc1-c1ccc2c(c1O)CCO2", "NLRP3 (Homo sapiens)", 7.27],
  ["COCCN1CCC[C@@H](Nc2nnc(-c3ccc4c(c3O)CCO4)c(C)n2)C1 [Example 5, formic acid salt]", "NLRP3 (Homo sapiens)", 7.82],
  ["Cc1nc(N[C@@H]2CCCN(CCCC(=O)N3CCOCC3)C2)nnc1-c1ccc2c(c1O)CCO2", "NLRP3 (Homo sapiens)", 7.34],
  ["Cc1nc(N[C@@H]2CCCN(CCCC(=O)N3CCC(O)C3)C2)nnc1-c1ccc2c(c1O)CCO2 (mixture of isomers)", "NLRP3 (Homo sapiens)", 7.48],
  ["Cc1nc(N[C@@H]2CCCN(CCCC(=O)N(C)C)C2)nnc1-c1ccc2c(c1O)CCO2", "NLRP3 (Homo sapiens)", 7.52],
  ["COC(C)CN1CCC[C@@H](Nc2nnc(-c3ccc4c(c3O)CCO4)c(C)n2)C1 (some centres unmarked)", "NLRP3 (Homo sapiens)", 7.40],
  ["Cc1nc(N[C@@H]2CCCN(CCCc3nnn[nH]3)C2)nnc1-c1ccc2c(c1O)CCO2", "NLRP3 (Homo sapiens)", 7.64],
  ["Cc1nc(N[C@@H]2CCCN(CC3(O)CC3)C2)nnc1-c1ccc2c(c1O)CCO2", "NLRP3 (Homo sapiens)", 7.48],
  ["CCN1C[C@@H](O)C[C@@H](Nc2nnc(-c3ccc4c(c3O)CCO4)c(C)n2)C1", "NLRP3 (Homo sapiens)", 7.64],
  ["Cc1nc(N[C@@H]2CCCN(CCCc3ncco3)C2)nnc1-c1ccc2c(c1O)CCO2", "NLRP3 (Homo sapiens)", 7.74],
  ["Cc1nc(N[C@@H]2CCCN(CCc3nnn[nH]3)C2)nnc1-c1ccc2c(c1O)CCO2", "NLRP3 (Homo sapiens)", 6.78],
  ["Cc1nc(N[C@@H]2CCCN(CCn3cccn3)C2)nnc1-c1ccc2c(c1O)CCO2", "NLRP3 (Homo sapiens)", 7.12]
]}
